system: P2X purinoceptor 1 (Homo sapiens) (UniProt P51575)
Sequence (P51575 whole entry): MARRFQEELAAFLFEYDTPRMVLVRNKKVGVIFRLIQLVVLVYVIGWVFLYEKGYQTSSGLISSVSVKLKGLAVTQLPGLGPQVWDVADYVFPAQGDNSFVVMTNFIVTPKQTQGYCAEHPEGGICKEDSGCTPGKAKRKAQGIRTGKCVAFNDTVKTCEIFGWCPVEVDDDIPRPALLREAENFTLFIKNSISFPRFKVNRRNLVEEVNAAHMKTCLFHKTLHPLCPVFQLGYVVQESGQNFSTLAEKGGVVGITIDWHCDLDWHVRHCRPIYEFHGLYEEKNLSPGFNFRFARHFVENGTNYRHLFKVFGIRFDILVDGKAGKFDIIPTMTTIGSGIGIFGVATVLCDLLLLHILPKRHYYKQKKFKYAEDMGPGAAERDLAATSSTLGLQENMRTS
protocol.text: Agonist activity at human platelet P2X1 receptor assessed as increase in cytosolic calcium level at 1 uM by […] staining based flow cytometric analysis relative to beta,gamma-CH2-ATP
Attribute: Activity
assay.metric: Activity (%)

molecule	data.value
CSc1nc(N)c2ncn([C@@H]3O[C@H](COP(=O)(S)OP(=O)(O)OP(=O)(O)OP(=O)(S)OC[C@H]4O[C@@H](n5cnc6c(N)nc(SC)nc65)[C@H](O)[C@@H]4O)[C@@H](O)[C@H]3O)c2n1 (mixture of isomers)	3
CNc1ncnc2c1ncn2[C@@H]1O[C@H](COP(=O)(S)OP(=O)(O)C(Cl)P(=O)(O)OP(=O)(S)OC[C@H]2O[C@@H](n3cnc4c(NC)ncnc43)[C@H](O)[C@@H]2O)[C@@H](O)[C@H]1O (mixture of isomers)	0.31
Nc1nc(Cl)nc2c1ncn2[C@@H]1O[C@H](COP(=O)(S)OP(=O)(O)C(Cl)P(=O)(O)OP(=O)(S)OC[C@H]2O[C@@H](n3cnc4c(N)nc(Cl)nc43)[C@H](O)[C@@H]2O)[C@@H](O)[C@H]1O (mixture of isomers)	0.07
CCSc1nc(N)c2ncn([C@@H]3O[C@H](COP(=O)([S-])OP(=O)([O-])C(Cl)P(=O)([O-])OP(=O)([S-])OC[C@H]4O[C@@H](n5cnc6c(N)nc(SCC)nc65)[C@H](O)[C@@H]4O)[C@@H](O)[C@H]3O)c2n1.[Na+].[Na+].[Na+].[Na+] (mixture of isomers)	23.8
